Data origin: the supplement of paper PMC10567573

method: protein stability index of a GFP-peptide fusion (GPS, HEK-293T) (PSI 1-6); higher = more stable;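 further: 24-mer peptide tiles fused after GFP, lentivirally expressed, FACS-sorted into six equal bins by GFP/DsRed ratio, decoded by Illumina sequencing, PSI is the read-weighted mean bin number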
condition_description: treatment: MLN4924 1 uM, 8 h; c terminus: a fixed tail appended
Known protein stability index of a selection of sequences
observed_property: protein stability index

INSERT INTO results (input_sequence, numeric_result) VALUES
  ('PQGPPASPSCPEEALAATWEQPWA [PXN]', 3.96),
  ('ASGHEPGGSAVCASRVKLQHLPAQ [PLEKHN1]', 3.95),
  ('GYSIKVFDFERSGLQHAPEPDAAD [SMAD6]', 4);

* * *

method: protein stability index of a GFP-peptide fusion (GPS, HEK-293T) (PSI 1-6); higher = more stable
condition_description: treatment: MLN4924 1 uM, 8 h; c terminus: a fixed tail appended
Rule: protein stability index of 3 or more gives criterion met; anything lower gives criterion not met.

INSERT INTO measurements (input_sequence, discrete_label) VALUES
  ('MGATRCDFTLSKTNMARIREIMEK [CPXM2]', 'criterion met'),
  ('QMPQGNPLLLSHTLQELLARDTVQ [SNX8]', 'criterion met'),
  ('LSGVSCFVMFLCLADYLVPILAPR [ARL6IP1]', 'criterion met'),
  ('APHSTFFDPIVLLPCDLPKVVSRA [LPCAT4]', 'criterion not met'),
  ('EEEQDILQRLRENAAHLGDKRRDL [TRIM39]', 'criterion met'),
  ('WKKLVLVDRNTRPGPQDPEESASR [ELOA2]', 'criterion met'),
  ('EAEVTILFYFFLYQYCSIHCSDRK [CSTF3]', 'criterion not met'),
  ('AGLLIIVLAIIAREGDCAPEEKIW [MAGEA3]', 'criterion not met'),
  ('LHYAAMHGRARIARLMLESEYRSD [ASB7]', 'criterion not met'),
  ('QAGDKDLDGQLDFEEFVHYLQDHE [SLC25A25]', 'criterion met'),
  ('SEAQLTDAETSKLIYDFIEDQGGL [WAS]', 'criterion met'),
  ('MDEEKLKQLNCVEISALNGNRINV [DLC1]', 'criterion met'),
  ('QQSPAAVSMETYHVTLTLPPTQLE [C2CD2L]', 'criterion met'),
  ('ESEPPAPNIRNMAPNSLSAPTMLH [TRAF3IP2]', 'criterion met'),
  ('ESGTKGLFAGFLPRIIKAAPSCAI [SLC25A39]', 'criterion not met'),
  ('GVDWEHIRERPAAIPIEIKSIDDT [STK38L]', 'criterion met'),
  ('SCLSSQSSALSQSGGGSTSAAGIE [SPACA3]', 'criterion met'),
  ('QKYKLFQQQQLTFTAALEHCRENA [SPACA9]', 'criterion met');
